B1: BCL2L13 (parent)
chain: YIIQQGGWGTVFSLESEEEEYPGI

- Variants of: B1
- experimental.protocol: protein stability index of a GFP-peptide fusion (GPS, HEK-293T) (PSI 1-6); higher = more stable;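 further: lentivirally expressed fusions sorted by FACS into six bins by GFP to DsRed ratio, PSI derived from sequencing read proportions per bin multiplied by bin number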
- assay.conditions: c terminus: a fixed tail appended
In this section, each of the variants is paired with its reported protein stability index.
The answer should be a number; do not append a unit.

Some entries whose results are on file:
>>> quantitative_result("P22R")
1.92
>>> quantitative_result("E18N")
2.86
>>> quantitative_result("Y21G")
2.02
>>> quantitative_result("L14H")
1

Task: What measured protein stability index goes with V11N ?
Result: 1.98

Task: What measured protein stability index goes with V11P ?
Result: 1.76

Task: What measured protein stability index goes with G6N ?
Result: 2.15

Task: What measured protein stability index goes with G6R ?
Result: 2.02

Task: What measured protein stability index goes with E15N ?
Result: 2.34

Task: What measured protein stability index goes with Y1A ?
Result: 3.38

Task: What measured protein stability index goes with S16A ?
Result: 1.69

Task: What measured protein stability index goes with I2Q ?
Result: 1.98

Task: What measured protein stability index goes with I2G ?
Result: 2.95

Ref: the supplement of paper PMC10567573
